The reader will find reported cell viability (log2) values listed item by item below.
# Test system: A673/TR/shEF
# test_method_notes: cell viability (LOESS-normalised, relative to median of negative controls) (log2 ratio); higher = more viable cells (less compound effect), active = hit call of the paper (over 3 MAD below the median)
# measurement_setup: 0.025 µM; library screen: screen1; EWS-FLI1 expression: high (no doxycycline); treatment time: 72 h
In all, about 3,200 compounds went through this assay and about 300 (9.4%) showed activity. This is one part of a sample in which actives are shown more often than they occur.
Answer field: number only, no words.

Assay A673/TR/shEF, sample N#CC(=C(N)Sc1ccccc1N)C(C#N)=C(N)Sc1ccccc1N , cell viability (log2) read: 0.299

# cell viability (log2) measured on A673/TR/shEF for item Cn1cnc2c(NCc3ccccc3)nc(NCCO)nc21 = 0.0452

---
Entry CC[C@H](CO)Nc1nc(NCc2ccccc2)c2ncn(C(C)C)c2n1 , tested on A673/TR/shEF, has a reported cell viability (log2) of 0.0954

The observed cell viability (log2) for CCCCCCCCCCCCC/C=C/[C@@H](O)[C@@H](N)CO when tested with A673/TR/shEF stands at 0.0541

* * *

# System: A673/TR/shEF
# test_method_notes: cell viability (LOESS-normalised, relative to median of negative controls) (log2 ratio); higher = more viable cells (less compound effect), active = hit call of the paper (over 3 MAD below the median)
# measurement_setup: 8.3 µM; library screen: screen3; EWS-FLI1 expression: low (doxycycline-induced shRNA knockdown); treatment time: 72 h
Hit rate of the full screen: of about 3,200 compounds, about 300 (9.4%) showed activity. What follows is part of a selection rich in actives, with near analogues and random picks from the rest.
Respond only with the outcome that fits, drawn from label 1 (active), label 0 (inactive)

Below are worked cases with known answers.
Called result for C=CC(=O)Nc1cc2c(Nc3ccc(F)c(Cl)c3)ncnc2cc1OCCCN1CCOCC1 label 0

Write down the call the test reported for this compound. Item: Oc1ccc(/C=C/c2cc(O)cc(O)c2)cc1 label 0

Kindly provide the recorded test outcome for the following compound: Cc1ccc(NC(=O)c2ccc(CN3CCN(C)CC3)cc2)cc1Nc1nccc(-c2cccnc2)n1 label 0

Hey, what did the test say about CCN(CCO)CCCOc1ccc2c(Nc3cc(CC(=O)Nc4cccc(F)c4)[nH]n3)ncnc2c1 ? label 0

***
Each compound tested received a call. Report the one for COc1cc2c(Nc3ccc(Br)cc3F)ncnc2cc1OCC1CCN(C)CC1 . label 0

What outcome does the record of this test show for CC(C(=O)O)c1cccc(C(=O)c2ccccc2)c1 (stereo not drawn) ? label 0

Recorded call for CC(C)(C)C(=O)OCOP(=O)(COCCn1cnc2c(N)ncnc21)OCOC(=O)C(C)(C)C ? label 0

# lookup: test call for O=C(O)C[C@H](O)C[C@H](O)/C=C/c1c(C2CC2)nc2ccccc2c1-c1ccc(F)cc1 label 1

* * *

# Tested on: A673/TR/shEF
# test_method_notes: cell viability (LOESS-normalised, relative to median of negative controls) (log2 ratio); higher = more viable cells (less compound effect), active = hit call of the paper (over 3 MAD below the median)
# measurement_setup: 0.25 µM; library screen: screen1; EWS-FLI1 expression: low (doxycycline-induced shRNA knockdown); treatment time: 72 h
The campaign covered roughly 3,200 compounds. About 300 (9.4%) showed activity. The entries come from a sample that favours actives as a whole.
Let's look at some molecules and their measured cell viability (log2).
Keep it simple and answer with nothing but the number.

These recorded examples may help you get a feel for the data.
NCCCCCC(=O)O has a reported cell viability (log2) of 0.00994

The molecule listed as CC(C)N1C(=O)C(=C2C(=O)N(C)c3ccccc32)SC1=S has a reported cell viability (log2) of 0.00946

In plain terms, CC12CCC3c4ccc(OCc5ccccc5)cc4CCC3C1C[C@@H](O)[C@@H]2O (stereo partly specified) has a documented cell viability (log2) of 0.0634

Note to self: cell viability (log2) recorded for Cc1c(OCC(F)(F)F)ccnc1C[S+]([O-])c1nc2ccccc2[nH]1 (stereo unspecified) was 0.0633

Per the record, O=C(O)c1cc2cc(F)ccc2[nH]1 has cell viability (log2) of -0.00933

New cases:
// recorded cell viability (log2) for O=C(O)c1cc2ccccc2[nH]1 : 0.0929

Data provenance: the supplement of paper PMC6089552
